The measurements presented in this section are drawn from PubChem BioAssay (NCI).

# System: UACC-62 melanoma
# protocol: NCI-60 one-dose screen, 48 h
# experimental parameters: 10 µM unless noted
This is part of a sample that, as a whole, favours compounds with a hit. Of some 83,000 tested, about 20% had one in any assay. Active and inactive are the calls of the source. The calls were made as follows: active = growth percent below 10; inactive = the rest.
In this exercise, the only acceptable responses are active, inactive

In this assay, the call recorded for `CCOC(=O)C1=C(C)NC(SCc2cc(=O)oc3ccc(F)cc23)=N[C@@H]1c1cccc2ccccc12` was what?
inactive

Hi, do you know how `COc1ccc2[nH]c(=O)c(CN3CCN(c4nccc(-c5ccc(Cl)cc5)n4)CC3)cc2c1` came out in this test?
inactive

Hi, sorry to bother you, what did the test record for `COC(=O)c1ccc2c(c1)[n+](=O)c(C(C)=O)c(C(F)(F)F)n2[O-]` ?
active

Outcome? O=C(c1nc2ccccc2[nH]1)C1C(c2ccc(Br)cc2)C2CC3CCCC[C@H]3N2[C@@]12C(=O)Nc1cc(Cl)ccc12 (stereo partly drawn)
inactive

Tell me the recorded outcome of this test for `O=C(/C=C/c1ccc(Cl)cc1)c1ccc(NC(=O)N2CCN(c3cc4c(cc3F)c(=O)c(C(=O)O)cn4C3CC3)CC2)cc1` .
inactive

# fetch the recorded call for `CN1[C@@H]2CC[C@H]1/C(=C\c1ccccc1)C(=O)/C2=C/c1ccccc1` here
inactive

Would you mind telling me which call this test gave N#CC(C(=O)/C(=N/NC(=O)c1ccccc1O)C(C#N)c1ccccc1)c1ccccc1 (stereo not drawn) ?
inactive

How was `CC(=O)OC[C@]12CC[C@@H](C(=O)CBr)[C@@H]1[C@H]1CC[C@@H]3[C@@]4(C)CC[C@H](OC(C)=O)C(C)(C)[C@@H]4CC[C@@]3(C)[C@]1(C)CC2` classified in this test?
inactive
